These measurements were taken from patent US10544106B2.

molecular target: BTK (Homo sapiens (Human), UniProt Q06187); experiment: Z'-LYTE kinase inhibition assay against BTK; format: biochemical; settings: compound at 100 nM; ATP concentration at Km
Sequence (Q06187 whole entry): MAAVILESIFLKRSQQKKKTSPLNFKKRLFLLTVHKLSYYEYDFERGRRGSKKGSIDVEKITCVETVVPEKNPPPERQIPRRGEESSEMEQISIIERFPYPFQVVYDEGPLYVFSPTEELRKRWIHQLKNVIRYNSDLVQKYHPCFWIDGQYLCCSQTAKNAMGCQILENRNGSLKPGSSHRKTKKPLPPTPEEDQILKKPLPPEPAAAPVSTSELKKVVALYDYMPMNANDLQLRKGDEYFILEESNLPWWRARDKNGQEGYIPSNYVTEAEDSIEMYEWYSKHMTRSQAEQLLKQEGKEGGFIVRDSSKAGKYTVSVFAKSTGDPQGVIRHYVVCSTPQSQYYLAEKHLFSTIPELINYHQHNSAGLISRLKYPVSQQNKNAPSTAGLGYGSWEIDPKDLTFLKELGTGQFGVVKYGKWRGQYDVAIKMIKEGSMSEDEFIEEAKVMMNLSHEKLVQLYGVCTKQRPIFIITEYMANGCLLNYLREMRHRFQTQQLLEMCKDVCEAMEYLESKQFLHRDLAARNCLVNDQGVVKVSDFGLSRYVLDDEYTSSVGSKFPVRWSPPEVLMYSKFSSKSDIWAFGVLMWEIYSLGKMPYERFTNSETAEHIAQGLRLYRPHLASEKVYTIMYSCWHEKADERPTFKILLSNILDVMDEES
The following molecules are listed with their measured inhibition at 0.1 µM values.

Input: Quick one: inhibition at 0.1 µM for C=CC(=O)N1CCC(c2cc(-c3ccc(C(=O)Nc4ccc(C(F)(F)F)cn4)cc3)cc3cncnc23)C1 (stereo not shown) [C142] ?
Output: < 50%

Continuing:
Input: Quick one: inhibition at 0.1 µM for C=CC(=O)N1CCC(c2cc(-c3ccc(C(=O)Nc4cc(C#N)ccn4)cc3F)n3cnccc23)C1 (stereo not shown) [C151] ?
Output: < 50%

Input: Quick one: inhibition at 0.1 µM for C=CC(=O)N1CCC(c2cc(-c3ccc(Oc4ccccn4)c(F)c3)cc3cncnc23)C1 (stereo not shown) [C160] ?
Output: > 50%

Input: Quick one: inhibition at 0.1 µM for C=CC(=O)N1CCC(c2cc(-c3cncc(C(F)(F)F)c3)cc3cncnc23)C1 (stereo not shown) [C066] ?
Output: < 50%

Input: Quick one: inhibition at 0.1 µM for CC#CC(=O)N1CCC(c2nc(-c3ccc(Oc4ncccc4C(F)(F)F)cc3)n3c(N)nccc23)C1 (stereo not shown) [C219] ?
Output: < 50%

Input: Quick one: inhibition at 0.1 µM for C=CC(=O)N1CCC(c2cc(-c3ccc(Oc4cccc(C(F)(F)F)c4)nc3)cc3cncnc23)C1 (stereo not shown) [C082] ?
Output: < 50%

Input: Quick one: inhibition at 0.1 µM for C=CC(=O)N1CCCC(c2cc(-c3ccc(Oc4ccccc4)cc3)cc3c(N)ncnc23)C1 (stereo not shown) [C030] ?
Output: < 50%

Input: Quick one: inhibition at 0.1 µM for C=CC(=O)N1CCC(c2cc(-c3ccc(Oc4ccccn4)cc3F)cc3cncnc23)C1 (stereo not shown) [C114] ?
Output: > 50%

Input: Quick one: inhibition at 0.1 µM for C=CC(=O)N1CCC(c2cc(-c3ccc(C(=O)Nc4cccc(C(F)(F)F)c4)cc3)n3cnccc23)C1 (stereo not shown) [C058] ?
Output: < 50%

Input: Quick one: inhibition at 0.1 µM for C=CC(=O)N1CCC(c2cc(-c3ccc(C(=O)Nc4ccncc4)cc3)cc3cncnc23)C1 (stereo not shown) [C155] ?
Output: < 50%

Input: Quick one: inhibition at 0.1 µM for C=CC(=O)Nc1cccc(-c2cc(-c3ccccc3)cc3cncnc23)c1 [C004] ?
Output: > 50%

Input: Quick one: inhibition at 0.1 µM for C=CC(=O)Nc1cccc(-c2ccc(-c3ccc(C(=O)Nc4ccccn4)cc3)c3cncnc23)c1 [C039] ?
Output: < 50%

Input: Quick one: inhibition at 0.1 µM for C=CC(=O)N1CCC(c2cc(-c3ccc(C(=O)Nc4cc(C(F)(F)F)ccn4)cc3)cc3cncnc23)C1 (stereo not shown) [C125] ?
Output: > 50%

* * *

The following molecules are listed with their measured inhibition at 0.1 µM values.
biological target: BTK (Homo sapiens (Human)); test: Z'-LYTE kinase inhibition assay against BTK; format: biochemical; settings: compound at 100 nM; ATP concentration at Km

Input: # query: inhibition at 0.1 µM | item C=CC(=O)Nc1cccc(-c2cc(-c3ccc(C(=O)Nc4ccccn4)cc3Cl)cc3cncnc23)c1 | system: BTK (Homo sapiens (Human))
Output: > 50%

Input: # query: inhibition at 0.1 µM | item C=CC(=O)N1CCC(c2cc(-c3ccc(Oc4ccccc4)cc3)cc3cnc(N)nc23)C1 (stereo not drawn) | system: BTK (Homo sapiens (Human))
Output: > 50%

Input: # query: inhibition at 0.1 µM | item C=CC(=O)Nc1cccc(-c2cc(-c3ccc(Oc4ncccc4Cl)cc3F)cc3cncnc23)c1 | system: BTK (Homo sapiens (Human))
Output: > 50%

Input: # query: inhibition at 0.1 µM | item CC#CC(=O)N1CCC(c2nc(-c3ccc(Oc4cc(OC)ccn4)cc3)n3c(N)nccc23)C1 (stereo not drawn) | system: BTK (Homo sapiens (Human))
Output: > 50%

Input: # query: inhibition at 0.1 µM | item C=CC(=O)N1CCC(c2cc(-c3ccc(Oc4ccccn4)cc3OC)cc3cnc(N)nc23)C1 (stereo not drawn) | system: BTK (Homo sapiens (Human))
Output: < 50%

Could you now look at the following molecule, please?
Input: # query: inhibition at 0.1 µM | item CC#CC(=O)N1CCC(c2nc(-c3ccc(Oc4cc(C(F)(F)F)ccn4)c(F)c3)n3c(N)nccc23)C1 (stereo not drawn) | system: BTK (Homo sapiens (Human))
Output: > 50%

* * *

The following molecules are listed with their measured inhibition at 0.1 µM values.
target: BTK (Homo sapiens (Human)); test: Z'-LYTE kinase inhibition assay against BTK; type: biochemical; details: compound at 100 nM; ATP concentration at Km

Illustrative cases are given below, each with its answer.
Input: # query: inhibition at 0.1 µM | item C=CC(=O)Nc1cccc(-c2cc(-c3ccc(Oc4cc(C(F)(F)F)ccn4)cc3)cc3cnc(N)nc23)c1 [C098] | system: BTK (Homo sapiens (Human))
Output: < 50%

Input: # query: inhibition at 0.1 µM | item C=CC(=O)N1CCC(c2nc(-c3ccc(Oc4ncccc4C(F)(F)F)c(F)c3)n3c(N)nccc23)C1 (stereo not drawn) [C223] | system: BTK (Homo sapiens (Human))
Output: > 50%

Input: # query: inhibition at 0.1 µM | item C=CC(=O)N1CCC(c2cc(-c3ccc(Oc4ccccn4)cc3)cc3cncnc23)C1 (stereo not drawn) [C107] | system: BTK (Homo sapiens (Human))
Output: > 50%

Input: # query: inhibition at 0.1 µM | item C=CC(=O)Nc1cccc(-c2cc(-c3ccc(Oc4ccccn4)c(F)c3)cc3cnc(N)nc23)c1 [C158] | system: BTK (Homo sapiens (Human))
Output: > 50%

Input: # query: inhibition at 0.1 µM | item C=CC(=O)Nc1cccc(-n2c(-c3ccccc3)nc3cncnc32)c1 [C014] | system: BTK (Homo sapiens (Human))
Output: < 50%

Input: # query: inhibition at 0.1 µM | item CC#CC(=O)N1CCC(c2nc(-c3ccc(C(=O)Nc4ccccn4)cc3)n3c(N)ncnc23)C1 (stereo not drawn) [C205] | system: BTK (Homo sapiens (Human))
Output: > 50%

Input: # query: inhibition at 0.1 µM | item C=CC(=O)Nc1cccc(-c2cc(-c3ccc(C(=O)Nc4ccccn4)cc3F)cc3cncnc23)c1 [C087] | system: BTK (Homo sapiens (Human))
Output: < 50%

Input: # query: inhibition at 0.1 µM | item C=CC(=O)N1CCC(c2cc(-c3ccccc3)cc3cncnc23)C1 (stereo not drawn) [C047] | system: BTK (Homo sapiens (Human))
Output: > 50%

Continuing:
Input: # query: inhibition at 0.1 µM | item C=CC(=O)N1CCC(n2c(-c3ccccc3Cl)nc3cncnc32)C1 (stereo not drawn) [C033] | system: BTK (Homo sapiens (Human))
Output: < 50%
